Record: Ki reported on UniProtKB Q62666.
Sequence (Q62666 whole entry): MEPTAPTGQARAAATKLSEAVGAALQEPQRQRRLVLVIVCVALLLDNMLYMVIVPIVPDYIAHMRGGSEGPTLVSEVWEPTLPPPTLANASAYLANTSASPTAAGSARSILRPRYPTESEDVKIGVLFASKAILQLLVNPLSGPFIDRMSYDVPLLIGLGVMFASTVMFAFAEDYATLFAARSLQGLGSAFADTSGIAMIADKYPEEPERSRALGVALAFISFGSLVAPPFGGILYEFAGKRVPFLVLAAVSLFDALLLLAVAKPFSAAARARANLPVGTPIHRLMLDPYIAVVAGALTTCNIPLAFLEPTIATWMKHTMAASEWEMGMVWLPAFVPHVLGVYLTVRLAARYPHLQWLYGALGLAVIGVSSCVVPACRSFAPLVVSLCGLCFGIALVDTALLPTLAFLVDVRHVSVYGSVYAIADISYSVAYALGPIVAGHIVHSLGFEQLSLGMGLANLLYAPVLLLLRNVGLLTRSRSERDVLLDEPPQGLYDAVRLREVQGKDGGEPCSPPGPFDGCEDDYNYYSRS

COMPOUND	Ki (nM)
O[C@H]1Cc2cccc(F)c2C[C@@H]1N1CCC(c2ccccc2)CC1 [(+)-(S,S)-5-FBVM. E2]	35
OC1Cc2cccc(F)c2CC1N1CCC(c2ccccc2)CC1 (racemic) [rac (+/−)-5-FBVM Trans]	1.3
OC1Cc2cccc(OCCF)c2CC1N1CCC(c2ccccc2)CC1 (single isomer, unassigned; (-)) [(−)-FEOBV, 5-fluoroethoxybenzovesamicol, reference compound]	61
O[C@@H]1Cc2cccc(F)c2C[C@H]1N1CCC(c2ccccc2)CC1 [(−)-(R,R)-5-FBVM E1]	0.9
